The measured values listed here are drawn from PubChem BioAssay (NCI).

system: CAKI-1 renal; test: NCI tumour cell line growth inhibition, 48 h
Property measured: TGI (µM)
Form entry: value (µM) — number only.

>  <Compound>
Nc1ccccc1SC(CC(=O)c1ccccc1)c1cccc([N+](=O)[O-])c1 (centres undefined)

>  <Result units>
µM

>  <Result value>
30.4

$$$$
>  <Compound>
O=C1C=C[C@@H](COC2OC(CO)C(O)C(O)C2O)O1 (some centres undefined)

>  <Result units>
µM

>  <Result value>
40

$$$$
>  <Compound>
N#CC(C#N)=C/C=C(\Sc1nc2ccccc2s1)c1ccc(Cl)cc1

>  <Result units>
µM

>  <Result value>
9.82

$$$$

Inquiry: Any idea what TGI was measured for Nn1c(Nc2ccc(S(=O)(=O)Nc3ncccn3)cc2)nnc(/C=C/c2c(O)ccc3ccccc23)c1=O ?
Reply text: 89.9

Inquiry: How about this compound: CCn1c(-c2nonc2N)nc2c(C#CC(C)(C)O)nc(OC[C@@H](N)c3ccccc3)cc21
Reply text: 14.1

----------
Listed below: TGI values for each entry.
test system: IGROV1 ovarian; assay: NCI tumour cell line growth inhibition, 48 h

>  <Compound>
C=C1CCN2CC[C@@H](OC(=O)/C(C)=C\C)[C@@H]12

>  <Target system>
IGROV1 ovarian

>  <Result value>
> 100 µM

$$$$
>  <Compound>
CCCCCCCC/C=C\CCCCCCCCCCCC(=O)O

>  <Target system>
IGROV1 ovarian

>  <Result value>
> 125 µM

$$$$
>  <Compound>
CC(=O)O/N=C(/C)c1ccccc1O

>  <Target system>
IGROV1 ovarian

>  <Result value>
> 100 µM

$$$$
>  <Compound>
CCCCCCCCCCn1cc[n+](C)c1

>  <Target system>
IGROV1 ovarian

>  <Result value>
10.1 µM

$$$$
>  <Compound>
Nc1n[nH]c2cc(F)c([C@@H]3Nc4ccc5[nH]ncc5c4[C@H]4C5CCC(C5)[C@@H]34)cc12 (stereo not given in full)

>  <Target system>
IGROV1 ovarian

>  <Result value>
15.6 µM

$$$$
>  <Compound>
COc1ccc2nc(NC(=O)CSc3nnc4n3S(=O)(=O)c3ccccc3N4c3ccccc3)sc2c1

>  <Target system>
IGROV1 ovarian

>  <Result value>
55.1 µM

$$$$
>  <Compound>
Nc1ncnc2c1[nH]c(=O)n2-c1ccccc1

>  <Target system>
IGROV1 ovarian

>  <Result value>
> 100 µM

$$$$
>  <Compound>
CC(=O)N1C(C(=O)NC2CCCCC2)CSC1c1ccccc1 (stereo not given)

>  <Target system>
IGROV1 ovarian

>  <Result value>
> 100 µM

$$$$
>  <Compound>
COc1cc(C2CC(C)(O)Oc3cc4c(cc32)OCO4)cc(OC)c1OC (stereo not given)

>  <Target system>
IGROV1 ovarian

>  <Result value>
> 100 µM

$$$$

# ---- query compound ----
Inquiry: Return reported TGI; argument: C=CC[C@H](C[C@H](C[C@H](C[C@H](C[C@H](C[C@H](C[C@H](C[C@H](C[C@H](C[C@H](CCCCC)OC)OC)OC)OC)OC)OC)OC)OC)OC)OC
Reply text: > 100 µM

----------
test system: MDA-MB-231 breast; assay: NCI tumour cell line growth inhibition, 48 h
Property measured: TGI

>  <Molecule>
COc1ccc(-c2[nH]c3c4c(nc5c(c24)C(=O)CC(C)(C)C5)CC(C)(C)C3)cc1

>  <Target system>
MDA-MB-231 breast

>  <TGI>
> 100 µM

$$$$

Inquiry: Item under review: C(=C(c1ccc(OC2CCCCO2)cc1)c1ccc(OC2CCCCO2)cc1)c1ccccc1 (stereo not given) . Reported TGI?
Reply text: 1.52 µM

Inquiry: Then this molecule: CC1(C)OC1COc1c2occc2cc2ccc(=O)oc12 (stereo not given)
Reply text: > 100 µM

Inquiry: Also, COc1cc(S(=O)(=O)Nc2nc(-c3ccc(N4C(=O)C(CC(=O)O)SC4c4cccs4)cc3)cs2)ccc1Cl (stereo not given) please.
Reply text: > 100 µM

Inquiry: Cool, now COC[C@H]1Cn2cc(-c3nc(Nc4ccnn4C)ncc3C)nc2C(=O)N1Cc1ccc(F)c(F)c1
Reply text: > 78.6 µM

Inquiry: Request: COc1ccc(CN2C(=O)/C(=C\c3cc(OC)c(OC)c(OC)c3)c3ccccc32)cc1
Reply text: > 100 µM

Inquiry: Also check CCOC(=O)c1c(CN2CCCC2)n(-c2ccccc2)c2cc(Br)c(O)cc12
Reply text: 39.7 µM

Inquiry: And what about the molecule N#CC(C#N)=C/C=C(\Sc1nc2ccccc2s1)c1ccc(Cl)cc1 ?
Reply text: 22.3 µM

Inquiry: Proceed to Cc1ccc(NC(=O)c2ccc(OP(=O)(O)Nc3ccc(C)cc3)cc2)cc1
Reply text: > 100 µM

Inquiry: What do we get for O=C(c1ccccn1)C1(N2CCCCC2)CCCCC1 ?
Reply text: > 100 µM

----------
tested on: ACHN renal; assay: NCI tumour cell line growth inhibition, 48 h
Property measured: TGI

Use these answered entries as a reference point.
>  <Molecule>
N#CC(NCc1cccc(CNC(C#N)c2ccccc2)c1)c1ccccc1 (stereo not given)

>  <TGI>
> 100 µM

$$$$
>  <Molecule>
Cc1oc2c(cc(O)c3cc(O)ccc32)c2cccc1-2

>  <TGI>
> 100 µM

$$$$
>  <Molecule>
C#CCn1c(=O)c2ccccc2n(CC#C)c1=O

>  <TGI>
> 10 µM

$$$$
>  <Molecule>
CC(=O)Nc1nc(NC(C)=O)c2[nH]c(CO)nc2n1

>  <TGI>
> 100 µM

$$$$
>  <Molecule>
CN1CC[C@@H](NC(=O)Nc2ccc(C#N)cc2)C[C@@H]1c1nc2ccccc2[nH]1

>  <TGI>
> 100 µM

$$$$
>  <Molecule>
N[C@@H]1CCCC[C@@H]1N.O=P([O-])([O-])CN(CCN(CP(=O)([O-])[O-])CP(=O)([O-])[O-])CP(=O)([O-])[O-].[Pt+2]

>  <TGI>
> 25 µM

$$$$
>  <Molecule>
O=C(/C=C/c1ccccc1)C[C@@H](O)C[C@@H]1CC=CC(=O)O1

>  <TGI>
30.5 µM

$$$$
>  <Molecule>
CC(C)=CCC(O)C1=CC(=O)c2c(O)ccc(O)c2C1=O (stereo not given)

>  <TGI>
1.86 µM

$$$$
>  <Molecule>
c1ccc(NCn2cnc3ccccc32)cc1

>  <TGI>
> 100 µM

$$$$

Inquiry: Checklist item: TGI tested on ACHN renal, entry CCCCCC[C@@H]1CCC2C(CO)[C@@H](O)CC[C@@H]2C1 (stereo not given in full) , value?
Reply text: 33.6 µM

----------
Documented TGI across a set of compounds
tested on: RXF-631 renal; test: NCI tumour cell line growth inhibition, 48 h

Here is how some compounds turned out for TGI.
>  <Compound>
O=c1ccc2ccccc2cc1[O-].O=c1ccc2ccccc2cc1[O-].[O]=[U+2]=[O]

>  <TGI>
41.6 µM

$$$$
>  <Compound>
N#C/C(=C\c1cccc(Cl)c1Cl)c1ccccc1

>  <TGI>
> 100 µM

$$$$

Inquiry: Record request: TGI value, item COc1ccc(OC)c(N2CC(N)C2=O)c1 (stereo unspecified)
Reply text: > 100 µM

Inquiry: What do you have for COC(=O)CC(c1ccccc1)C1(c2ccccc2)SCCS1 (stereo unspecified) ?
Reply text: > 290 µM

Inquiry: Try C=C(C)CCOC(c1ccccc1)(c1ccccc1)c1ccccc1 next.
Reply text: > 100 µM

Inquiry: Quick one: C/C(CCn1[nH]c(=O)ccc1=O)=N\NC(=O)C(=O)NN
Reply text: > 100 µM

----------
Entries and their TGI
test system: HCT-116 colon; experiment: NCI tumour cell line growth inhibition, 48 h

Past entries and their recorded results:
>  <Compound>
Cc1ccc(NC(=O)c2ccc(OP(=O)(O)Nc3ccc(C)cc3)cc2)cc1

>  <Result value>
> 100 µM

$$$$
>  <Compound>
O=[N+]([O-])c1ccc(Cl)cc1N/N=C/c1ccnc2ccccc12

>  <Result value>
> 100 µM

$$$$
>  <Compound>
COc1cc(S(=O)(=O)Nc2nc(-c3ccc(N4C(=O)C(CC(=O)O)SC4c4cccs4)cc3)cs2)ccc1Cl (configuration not stated)

>  <Result value>
> 100 µM

$$$$

Inquiry: Form: Entry = Nc1nc(SCCC/C=C/I)nc2c1ncn2C1OC(COP(=O)(O)O)C(O)C1O (configuration not stated) | System = HCT-116 colon | TGI = ____
Reply text: > 100 µM

Inquiry: Another compound to check: CC(=O)Nn1c(=S)[nH]c2ccccc21
Reply text: > 100 µM

Inquiry: Next up: CCC(=O)NC(Nc1cc(C)on1)(C(F)(F)F)C(F)(F)F
Reply text: > 100 µM

----------
tested on: HCT-15 colon; experiment: NCI tumour cell line growth inhibition, 48 h
Property measured: GI50

Below: 4 molecules and their reported GI50.
>  <Molecule>
Nc1cc(NN=C(c2ccc(O)cc2)c2ccc(O)cc2)c([N+](=O)[O-])cc1[N+](=O)[O-]

>  <GI50>
1780 nM

$$$$
>  <Molecule>
Nc1n[nH]c2cccc(C#Cc3cccc(C(=O)Nc4ccc(CN5CCOCC5)c(C(F)(F)F)c4)c3)c12

>  <GI50>
2560 nM

$$$$
>  <Molecule>
CCn1c(-c2nonc2N)nc2c(C#CC(C)(C)O)nc(OC[C@@H](N)c3ccccc3)cc21

>  <GI50>
5780 nM

$$$$
>  <Molecule>
COc1ccc(CN2C(=O)/C(=C\c3cc(OC)c(OC)c(OC)c3)c3ccccc32)cc1

>  <GI50>
1900 nM

$$$$

Inquiry: Request the reported GI50 associated with CCCCCCCCCCCCC(O)c1ccc(C#CCCCCCCCCCO)o1 (centres undefined)
Reply text: 18200 nM

Inquiry: Same thing, different molecule: O=C(Oc1ccc(Cl)cc1)c1ccccc1Nc1ccnc(C(F)(F)F)c1
Reply text: 2070 nM

Inquiry: Next entry: Nc1ccccc1SC(CC(=O)c1ccccc1)c1cccc([N+](=O)[O-])c1 (centres undefined)
Reply text: 11500 nM

Inquiry: Item: Nc1c(C(=O)Nc2cccc(C(F)(F)F)c2)sc2nc3c(cc12)CCCCC3
Reply text: 10700 nM

Inquiry: Same question, COc1cccc(-c2nc(-c3ccc(NC(=O)OC(C)C)cc3)[nH]c2-c2ccnc(Br)c2)c1 this time
Reply text: 1190 nM
